Kindly supply the reported protein stability index values for the records listed here.
B1: CCDC6 (parent)
chain: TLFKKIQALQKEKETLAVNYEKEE

- Variants of: B1
- method: protein stability index of a GFP-peptide fusion (GPS, HEK-293T) (PSI 1-6); higher = more stable;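 note: lentivirally expressed fusions sorted by FACS into six bins by GFP to DsRed ratio, PSI derived from sequencing read proportions per bin multiplied by bin number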
- condition_context: c terminus: a fixed tail appended
Answers are plain numbers.

// solved cases for protein stability index follow
E24I : 2.19
E23R : 2.29
E23F : 1.99
E24T : 2.82
A8Q : 3.23
E21L : 2.28
K5S : 3.47
L9S : 4.05

Required: protein stability index, one value per variant below.
1. V18N
2. A17H
3. A17R
4. V18M
5. L2R
6. E23T

Solution:
1. 3.63
2. 2.95
3. 2.76
4. 2.81
5. 5.13
6. 3.02

Hi! Can you tell me protein stability index for each of these variants?
1. K5T
2. F3P
3. T15D
4. Y20V

Solution:
1: 2.95; 2: 5.44; 3: 3.89; 4: 3.47

For each of the items listed, what is its protein stability index?
1. E21N
2. T1L
3. K13H
4. L9R

Solution:
[2.92, 2.38, 2.81, 4.25]
